TESTED_SYSTEM: [35S]-tert-butylbicyclophosphorothionate (TBPS) binding
EXPERIMENT_DESCRIPTION: Inhibition of [35S]-TBPS binding (in vitro potency)
Set-up: species or system rat
MEASUREMENT_CONTEXT: dose of steroid inhibiting 50% of specific binding of [35S]-TBPS
pIC50: −log10 of the molar value.
pIC50 below 7 gives not satisfied; pIC50 at or above it gives satisfied.

Completed entries (count: 5):
CC1(O)CCC2(C)C(CCC3C2CCC2(C)C(C(=O)COc4ccc5c(ccc[n+]5[O-])c4)CCC32)C1 (centres unmarked) [reference compound]
satisfied
COCC1(O)CCC2(C)C(CCC3C2CCC2(C)C(C(=O)COc4ccc5c(ccc[n+]5[O-])c4)CCC32)C1 (centres unmarked)
satisfied
CC1(O)CCC2(C)C(CCC3C2CCC2(C)C(C(=O)Cn4ncnn4)CCC32)C1 (centres unmarked) [reference compound]
satisfied
COCC1(O)CCC2(C)C(CCC3C2CCC2(C)C(C(=O)Cn4ccnc4)CCC32)C1 (stereo not drawn) [3α-Hydroxy-21-(1′-imidazolyl)-3β-methoxymethyl-5β-pregnan-20]
not satisfied
COCC1(O)CCC2(C)C(CCC3C2CCC2(C)C(C(=O)Cn4ncnn4)CCC32)C1 (centres unmarked)
satisfied

Say whether COCC1(O)CCC2(C)C(CCC3C2CCC2(C)C(C(=O)CSc4nnc(N)s4)CCC32)C1 (centres unmarked) shows pIC50 of 7 or more.
satisfied

All figures here come from patent US20040034002A1.
